target: geranylgeranylated RAC1 (RAC1^GG) (human); assay: not stated
pKd: −log10 of the molar value.

| substance | pKd |
| --- | --- |
| GDI1 (RHOGDI1), wild type (from UniProt P52565 1-204) (natural protein) | 6.74 |

* * *

target: RAC1, RAC3, RHOG and RHOA; assay: stopped-flow fluorimetry; kon from kobs against increasing GDI concentrations mixed with 0.2 µM mdGDP-bound RHO GTPase; koff by displacement with excess unlabeled GDP-bound RHO protein; Kd = koff/kon; 25 °C, 30 mM Tris/HCl pH 7.5, 10 mM K2HPO4/KH2PO4 pH 7.5, 5 mM MgCl2, 3 mM DTT
pKd: −log10 of the molar value.
measurement name: pKd

| substance | measurement name | result |
| --- | --- | --- |
| GDI1 (RHOGDI1), wild type (from UniProt P52565 1-204) (natural protein) | pKd | 5.49 to 6.05 |
